The reported numbers originate from patent US20100311749A1.

Biological target: human P2X7 receptor (Homo sapiens, UniProt Q99572)
Construct: expressed in transfected cells
Sequence (Q99572 1-595): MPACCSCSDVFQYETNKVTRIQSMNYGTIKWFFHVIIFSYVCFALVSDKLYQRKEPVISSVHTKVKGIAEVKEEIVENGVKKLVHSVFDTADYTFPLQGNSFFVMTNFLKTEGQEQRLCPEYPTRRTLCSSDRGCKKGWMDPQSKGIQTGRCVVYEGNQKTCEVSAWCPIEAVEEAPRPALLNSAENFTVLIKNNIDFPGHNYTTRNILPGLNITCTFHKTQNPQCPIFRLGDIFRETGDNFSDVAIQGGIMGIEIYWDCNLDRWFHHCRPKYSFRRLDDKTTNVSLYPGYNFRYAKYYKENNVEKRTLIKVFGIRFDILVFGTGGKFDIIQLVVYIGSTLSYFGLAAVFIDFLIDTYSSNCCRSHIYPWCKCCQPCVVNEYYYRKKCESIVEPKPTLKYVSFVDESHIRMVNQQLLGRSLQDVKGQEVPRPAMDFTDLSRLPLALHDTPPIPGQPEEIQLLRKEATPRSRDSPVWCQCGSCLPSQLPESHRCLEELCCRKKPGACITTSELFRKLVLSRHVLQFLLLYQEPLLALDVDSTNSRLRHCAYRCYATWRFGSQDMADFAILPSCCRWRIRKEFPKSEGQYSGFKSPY
Assay: Ethidium Accumulation Assay
Assay type: cell-based
Details: HEK293 cells stably expressing human recombinant P2X7 receptors; 1 mM ATP; values given as 'about'; read-out: pIC50 for human P2X7 receptor antagonist activity (blocking ATP responses) in the Ethidium Accumulation Assay (converted)
OBSERVATION_TYPE: IC50

{"SMILES_RECORD": "Cc1ccc(Br)cc1N1CCN(C(=O)c2cccc(C(F)(F)F)c2Cl)CC1=O", "OBS_VALUE": "2.51 to 100 nM"}
{"SMILES_RECORD": "Cc1c(N2CCOCC2)cccc1N1CCN(C(=O)c2cccc(Cl)c2Cl)CC1=O", "OBS_VALUE": "2.51 to 100 nM"}
{"SMILES_RECORD": "CC(C)c1ccccc1N1CCN(C(=O)c2cccc(C(F)(F)F)c2Cl)CC1=O", "OBS_VALUE": "2.51 to 100 nM"}
{"SMILES_RECORD": "O=C(c1cccc(C(F)(F)F)c1Cl)N1CCN(c2ccc(F)cc2F)C(=O)C1", "OBS_VALUE": "2.51 to 100 nM"}
{"SMILES_RECORD": "CC(C)Oc1cc(F)ccc1N1CCN(C(=O)c2cccc(Cl)c2Cl)CC1=O", "OBS_VALUE": "2.51 to 100 nM"}
{"SMILES_RECORD": "Cc1cccc(C(=O)N2CCN(c3ccc(F)cc3Cl)C(=O)C2)c1Cl", "OBS_VALUE": "2.51 to 100 nM"}
{"SMILES_RECORD": "O=C(c1cccc(C(F)(F)F)c1F)N1CCN(c2ccc(F)cc2Cl)C(=O)C1", "OBS_VALUE": "2.51 to 100 nM"}
{"SMILES_RECORD": "CC(C)N1CCN(C(=O)c2cccc(Cl)c2Cl)CC1=O", "OBS_VALUE": "5.01 to 200 nM"}
{"SMILES_RECORD": "O=C(c1ccc(F)cc1Cl)N1CCN(c2ccccc2Cl)C(=O)C1", "OBS_VALUE": "5.01 to 200 nM"}
{"SMILES_RECORD": "O=C(c1cccc(Cl)c1Cl)N1CCN(c2cc(N3CCOCC3)ccc2Cl)C(=O)C1", "OBS_VALUE": "2.51 to 100 nM"}
{"SMILES_RECORD": "CCC(CC)N1CCN(C(=O)c2cccc(C(F)(F)F)c2Cl)CC1=O", "OBS_VALUE": "2.51 to 100 nM"}
{"SMILES_RECORD": "Cc1ccccc1N1CCN(C(=O)c2cccc(C(F)(F)F)c2Cl)CC1=O", "OBS_VALUE": "5.01 to 200 nM"}
{"SMILES_RECORD": "Cc1ccc(N2CCOCC2)cc1N1CCN(C(=O)c2cccc(C(F)(F)F)c2Cl)CC1=O", "OBS_VALUE": "2.51 to 100 nM"}
{"SMILES_RECORD": "Cc1ccccc1N1CCN(C(=O)c2cccc(Cl)c2Cl)CC1=O", "OBS_VALUE": "5.01 to 200 nM"}
{"SMILES_RECORD": "N#Cc1cc(F)ccc1N1CCN(C(=O)c2cccc(C(F)(F)F)c2Cl)CC1=O", "OBS_VALUE": "2.51 to 100 nM"}
{"SMILES_RECORD": "CCN1CCN(C(=O)c2cccc(Cl)c2Cl)CC1=O", "OBS_VALUE": "5.01 to 200 nM"}
